- assayed system: Acetylcholinesterase (Homo sapiens)
pIC50: −log10 of the molar value.

- molecule: "CCCCCCOC(=O)[C@H](CCC(=O)NCCC1CCN(Cc2ccccc2)CC1)NC(=O)c1cc2ccsc2s1"
  assayed system: "Acetylcholinesterase (Homo sapiens)"
  pIC50: 6.52
- molecule: "CCCCCCOC(=O)[C@H](CCC(=O)NCCC1CCN(Cc2ccccc2)CC1)NC(=O)c1cccs1"
  assayed system: "Acetylcholinesterase (Homo sapiens)"
  pIC50: 6.30
- molecule: "CCCCCCOC(=O)[C@H](CCC(=O)NCCC1CCN(Cc2ccccc2)CC1)NC(=O)c1cc(Br)cs1"
  assayed system: "Acetylcholinesterase (Homo sapiens)"
  pIC50: 6.74
- molecule: "CCCCCCOC(=O)[C@H](CCC(=O)NCCC1CCN(Cc2ccccc2)CC1)NC(=O)OC(C)(C)C"
  assayed system: "Acetylcholinesterase (Homo sapiens)"
  pIC50: 6.02
- molecule: "CCCCCCOC(=O)[C@H](CCC(=O)NCCC1CCN(Cc2ccccc2)CC1)NC(=O)Cc1cc2ccc(Cl)cc2s1"
  assayed system: "Acetylcholinesterase (Homo sapiens)"
  pIC50: 7.00

###

- assayed system: Cholinesterase (Homo sapiens)
- Sequence (P06276 whole entry): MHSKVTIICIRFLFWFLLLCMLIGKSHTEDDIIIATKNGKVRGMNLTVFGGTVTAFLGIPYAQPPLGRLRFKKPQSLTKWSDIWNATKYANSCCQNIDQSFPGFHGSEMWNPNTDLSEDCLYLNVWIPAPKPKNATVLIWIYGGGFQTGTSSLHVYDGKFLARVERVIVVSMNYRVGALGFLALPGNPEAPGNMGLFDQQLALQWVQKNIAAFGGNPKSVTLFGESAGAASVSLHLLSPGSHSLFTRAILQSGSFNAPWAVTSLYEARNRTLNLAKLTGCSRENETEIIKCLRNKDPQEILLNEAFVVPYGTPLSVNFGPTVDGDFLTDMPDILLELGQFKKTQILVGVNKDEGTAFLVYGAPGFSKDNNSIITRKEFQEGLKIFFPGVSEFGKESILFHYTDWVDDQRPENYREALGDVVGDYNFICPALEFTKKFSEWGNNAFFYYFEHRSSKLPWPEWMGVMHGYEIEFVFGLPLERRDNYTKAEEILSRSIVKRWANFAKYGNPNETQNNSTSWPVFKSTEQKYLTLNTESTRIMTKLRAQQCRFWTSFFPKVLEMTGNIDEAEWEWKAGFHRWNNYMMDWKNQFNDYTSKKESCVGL
- assay comment: Inhibition of human BuChE in serum
Label 1.0 when IC50 < 700 nM; otherwise 0.0.

- molecule: "CCCCCCOC(=O)[C@H](CCC(=O)NCCC1CCN(Cc2ccccc2)CC1)NC(=O)c1cc2ccccc2s1"
  category: 1.0
- molecule: "CCCCCCOC(=O)[C@H](CCC(=O)NCCC1CCN(Cc2ccccc2)CC1)NC(=O)c1cc2cccnc2s1"
  category: 0.0
- molecule: "CCCCCCOC(=O)[C@H](CCC(=O)NCCC1CCN(Cc2ccccc2)CC1)NC(=O)Cc1cc2ccc(Cl)cc2s1"
  category: 1.0
- molecule: "CCCCCCOC(=O)[C@H](CCC(=O)NCCC1CCN(Cc2ccccc2)CC1)NC(=O)OC(C)(C)C"
  category: 0.0
- molecule: "CCCCCCOC(=O)[C@H](CCC(=O)NCCC1CCN(Cc2ccccc2)CC1)NC(=O)c1cc2ccsc2s1"
  category: 1.0
- molecule: "CCCCCCOC(=O)[C@H](CCC(=O)NCCC1CCN(Cc2ccccc2)CC1)NC(=O)c1cc(Br)cs1"
  category: 0.0
- molecule: "CCCCCCOC(=O)[C@H](CCC(=O)NCCC1CCN(Cc2ccccc2)CC1)NC(=O)c1ccccc1"
  category: 0.0
- molecule: "CCCCCCOC(=O)[C@H](CCC(=O)NCCC1CCN(Cc2ccccc2)CC1)NC(=O)OCc1ccccc1"
  category: 0.0
- molecule: "CCCCCCOC(=O)[C@H](CCC(=O)NCCC1CCN(Cc2ccccc2)CC1)NC(=O)c1cccs1"
  category: 0.0

###

- System: SH-SY5Y
- assay comment: Neuroprotective activity against human SH-SY5Y cells assessed as protection reduction in H2O2-induced LDH release at 30 uM after 24 hrs
- Type: functional
- Design: scale not given: the % may be the effect or the level left
quantity measured: Activity (%)

- molecule: "CCCCCCOC(=O)[C@H](CCC(=O)NCCC1CCN(Cc2ccccc2)CC1)NC(=O)OC(C)(C)C"
  assayed system: "SH-SY5Y"
  quantity measured: "Activity"
  measured number: 0
- molecule: "CCCCCCOC(=O)[C@H](CCC(=O)NCCC1CCN(Cc2ccccc2)CC1)NC(=O)Cc1cc2ccc(Cl)cc2s1"
  assayed system: "SH-SY5Y"
  quantity measured: "Activity"
  measured number: 0
- molecule: "CCCCCCOC(=O)[C@H](CCC(=O)NCCC1CCN(Cc2ccccc2)CC1)NC(=O)c1cccs1"
  assayed system: "SH-SY5Y"
  quantity measured: "Activity"
  measured number: 31.8
- molecule: "CCCCCCOC(=O)[C@H](CCC(=O)NCCC1CCN(Cc2ccccc2)CC1)NC(=O)c1cc(Br)cs1"
  assayed system: "SH-SY5Y"
  quantity measured: "Activity"
  measured number: 66.7

###

- assayed system: Acetylcholinesterase (Homo sapiens, UniProt P22303)
- Sequence (P22303 whole entry): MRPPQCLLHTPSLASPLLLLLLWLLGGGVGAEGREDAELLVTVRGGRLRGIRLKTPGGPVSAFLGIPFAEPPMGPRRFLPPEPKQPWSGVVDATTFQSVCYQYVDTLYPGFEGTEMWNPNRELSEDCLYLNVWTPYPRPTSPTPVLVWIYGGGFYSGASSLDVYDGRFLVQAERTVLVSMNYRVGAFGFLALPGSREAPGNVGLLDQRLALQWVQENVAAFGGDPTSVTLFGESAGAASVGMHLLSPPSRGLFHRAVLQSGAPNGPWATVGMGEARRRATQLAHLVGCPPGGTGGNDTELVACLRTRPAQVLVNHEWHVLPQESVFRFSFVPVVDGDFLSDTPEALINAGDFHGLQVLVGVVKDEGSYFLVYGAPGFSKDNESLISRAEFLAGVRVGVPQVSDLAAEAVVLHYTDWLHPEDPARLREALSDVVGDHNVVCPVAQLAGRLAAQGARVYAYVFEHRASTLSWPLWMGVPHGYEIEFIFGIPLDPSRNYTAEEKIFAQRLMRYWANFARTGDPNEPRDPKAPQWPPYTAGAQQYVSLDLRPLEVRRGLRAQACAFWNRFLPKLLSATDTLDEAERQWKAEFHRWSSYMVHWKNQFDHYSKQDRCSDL
- assay comment: Displacement of propidium iodide from AChE peripheral anionic site at 1 uM
quantity measured: Activity (%)

- molecule: "CCCCCCOC(=O)[C@H](CCC(=O)NCCC1CCN(Cc2ccccc2)CC1)NC(=O)c1cc2ccsc2s1"
  quantity measured: "Activity"
  sign: "="
  measured number: 33.3
- molecule: "CCCCCCOC(=O)[C@H](CCC(=O)NCCC1CCN(Cc2ccccc2)CC1)NC(=O)OCc1ccccc1"
  quantity measured: "Activity"
  sign: "="
  measured number: 25
- molecule: "CCCCCCOC(=O)[C@H](CCC(=O)NCCC1CCN(Cc2ccccc2)CC1)NC(=O)Cc1cc2ccc(Cl)cc2s1"
  quantity measured: "Activity"
  sign: "="
  measured number: 16
- molecule: "CCCCCCOC(=O)[C@H](CCC(=O)NCCC1CCN(Cc2ccccc2)CC1)NC(=O)c1cccs1"
  quantity measured: "Activity"
  sign: "="
  measured number: 10.3
- molecule: "CCCCCCOC(=O)[C@H](CCC(=O)NCCC1CCN(Cc2ccccc2)CC1)NC(=O)c1ccccc1"
  quantity measured: "Activity"
  sign: "="
  measured number: 15.9
- molecule: "CCCCCCOC(=O)[C@H](CCC(=O)NCCC1CCN(Cc2ccccc2)CC1)NC(=O)c1cc(Br)cs1"
  quantity measured: "Activity"
  sign: "<"
  measured number: 0.5
- molecule: "CCCCCCOC(=O)[C@H](CCC(=O)NCCC1CCN(Cc2ccccc2)CC1)NC(=O)OC(C)(C)C"
  quantity measured: "Activity"
  sign: "="
  measured number: 43.6
- molecule: "CCCCCCOC(=O)[C@H](CCC(=O)NCCC1CCN(Cc2ccccc2)CC1)NC(=O)c1cc2cccnc2s1"
  quantity measured: "Activity"
  sign: "="
  measured number: 35.4
- molecule: "CCCCCCOC(=O)[C@H](CCC(=O)NCCC1CCN(Cc2ccccc2)CC1)NC(=O)c1cc2ccccc2s1"
  quantity measured: "Activity"
  sign: "="
  measured number: 26.5

###

pIC50: −log10 of the molar value.
These records show pIC50 for Cholinesterase (Equus caballus, UniProt P81908).
quantity measured: pIC50

- molecule: "CCCCCCOC(=O)[C@H](CCC(=O)NCCC1CCN(Cc2ccccc2)CC1)NC(=O)c1cccs1"
  quantity measured: "pIC50"
  measured number: 6.00
- molecule: "CCCCCCOC(=O)[C@H](CCC(=O)NCCC1CCN(Cc2ccccc2)CC1)NC(=O)OCc1ccccc1"
  quantity measured: "pIC50"
  measured number: 6.12
- molecule: "CCCCCCOC(=O)[C@H](CCC(=O)NCCC1CCN(Cc2ccccc2)CC1)NC(=O)OC(C)(C)C"
  quantity measured: "pIC50"
  measured number: 5.46
